Test system: Crabgrass
method.summary: Pre-emergent herbicidal activity (Table III); also: ranges in brackets are in %
Format: in vivo
condition.summary: 0.28 kg/ha

compound	Herbicidal rating
CC1=C(N(Cn2c(=O)sc3ccccc32)C(=O)CCl)C(C)CCC1 (stereo not shown)	3 (75-100)
COc1cccc(C)c1N(Cn1c(=O)sc2ccccc21)C(=O)CCl	1 (25-49)
CCc1cccc(CC)c1N(Cn1c(=O)sc2ccccc21)C(=O)CCl	1 (25-49)
CC1=C(N(Cn2c(=O)sc3ccccc32)C(=O)CCl)CCCC1	3 (75-100)

====

Tested on: Smartweed
method.summary: Pre-emergent herbicidal activity (Table III); also: ranges in brackets are in %
Assay type: in vivo
condition.summary: 5.6 kg/ha

molecule	system.under.test	Herbicidal rating
COc1cccc(C)c1N(Cn1c(=O)sc2ccccc21)C(=O)CCl	Smartweed	2 (50-74)
CC1=C(N(Cn2c(=O)sc3ccccc32)C(=O)CCl)C(C)CCC1 (stereo not drawn) [Example 1]	Smartweed	0 (0-24)
CC1=C(N(Cn2c(=O)sc3ccc(Cl)cc32)C(=O)CCl)C(C)CCC1 (stereo not drawn)	Smartweed	1 (25-49)
CC1=C(N(Cn2c(=O)sc3ccccc32)C(=O)CCl)C(C)CCC1 (stereo not drawn) [Example 9]	Smartweed	1 (25-49)
CCc1cccc(CC)c1N(Cn1c(=O)sc2ccccc21)C(=O)CCl	Smartweed	0 (0-24)
CC1=C(N(Cn2c(=O)sc3ccccc32)C(=O)CCl)CCCC1	Smartweed	2 (50-74)

====

Tested on: Crabgrass
method.summary: Pre-emergent herbicidal activity (Table III); also: ranges in brackets are in %
Format: in vivo
condition.summary: 1.12 kg/ha
Experimental: The pre-emergence tests are conducted as follows: A good grade of top soil is placed in aluminum pans and compacted to a depth of three-eighths to one-half inch from the top of the pan. On the top of the soil is placed a predetermined number of seeds or vegetative propagules of various plant species. […] Approximately 2-3 weeks after seeding and treating, the plants are observed and the results recorded. […]
Parameter Herbicidal rating: see the listing below.
assay.endpoint: Herbicidal rating

molecule	measurement
CC1=C(N(Cn2c(=O)sc3ccccc32)C(=O)CCl)C(C)CCC1 (stereo not drawn) [Example 9]	2 (50-74)
CCc1cccc(CC)c1N(Cn1c(=O)sc2ccccc21)C(=O)CCl	2 (50-74)
COc1cccc(C)c1N(Cn1c(=O)sc2ccccc21)C(=O)CCl	3 (75-100)
CC1=C(N(Cn2c(=O)sc3ccc(Cl)cc32)C(=O)CCl)C(C)CCC1 (stereo not drawn)	2 (50-74)
CC1=C(N(Cn2c(=O)sc3ccccc32)C(=O)CCl)CCCC1	3 (75-100)
CC1=C(N(Cn2c(=O)sc3ccccc32)C(=O)CCl)C(C)CCC1 (stereo not drawn) [Example 1]	3 (75-100)

====

Parameter Herbicidal rating: see the listing below.
System: Morningglory
method.summary: Pre-emergent herbicidal activity (Table II); also: ranges in brackets are in %
Assay type: in vivo
condition.summary: 5.6 kg/ha, 2-3 weeks

compound	Herbicidal rating
CC1=C(N(Cn2c(=O)sc3ccc(Cl)cc32)C(=O)CCl)C(C)CCC1 (centres unmarked)	0 (0-24)
CCOc1ccc2c(c1)sc(=O)n2CN(C(=O)CCl)C1=C(C)C(C)CCC1 (centres unmarked)	0 (0-24)
CC1=C(N(Cn2c(=O)sc3ccccc32)C(=O)CCl)C(C)CCC1 (centres unmarked) [Example 1]	2 (50-74)
CC1=C(N(Cn2c(=O)sc3ccccc32)C(=O)CCl)CCCC1	3 (75-100)
CC1=C(N(Cn2c(=O)sc3ccccc32)C(=O)CCl)C(C)CCC1 (centres unmarked) [Example 9]	0 (0-24)
